Reported Ki values for a set of compounds
tgt: rat TAAR1 (Rattus norvegicus (Rat), UniProt Q923Y9)
Sequence (Q923Y9 whole entry): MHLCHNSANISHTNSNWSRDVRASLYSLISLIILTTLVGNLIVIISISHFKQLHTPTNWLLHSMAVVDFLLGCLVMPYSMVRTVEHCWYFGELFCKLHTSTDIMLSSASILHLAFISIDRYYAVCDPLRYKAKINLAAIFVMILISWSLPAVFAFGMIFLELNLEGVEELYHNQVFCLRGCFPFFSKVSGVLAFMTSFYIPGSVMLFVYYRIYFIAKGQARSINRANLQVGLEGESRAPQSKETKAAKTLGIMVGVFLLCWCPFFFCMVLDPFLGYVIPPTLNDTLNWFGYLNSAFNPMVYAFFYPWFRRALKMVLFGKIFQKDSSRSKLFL
experiment: Radioligand binding assay on rat TAAR1
condition-description: rat TAAR1, membranes of HEK-293 cells, second value of the cell pair mouse/rat
Structures can show the parent of a compound that is named as a salt.
Numbers only; they are read as µM.

> print(dat)
                                   compound  numeric.result
1  Fc1ccc([C@@H]2COC(c3ccc([C@H]4CNCCO4)cc3)=N2)cc1 [Example 22]            1.51
2  Fc1ccc(-c2cc(-c3ccc([C@H]4CNCCO4)cc3)n[nH]2)cc1 [Example 29, hydrochloride]          0.0044

Prompt: I would be grateful if you could share the reported Ki for Clc1ccc(-c2cc(-c3ccc(C4CNCCO4)cc3)n[nH]2)cn1 (stereo not drawn) [Example 5, hydrochloride] .
Response: 0.0631
